# ASSAY INFO: Oral bioavailability in dog at 3 mg/kg measured after 24 hrs by LC/MS/MS analysis
# Format: ADME, organism-based, Canis lupus familiaris
# SETTINGS: in vivo
MEASUREMENT NAME: bioavailability
Just so you know, I need the unit written after the number.

Exam item: Item under review: `Cn1c(=O)cc(N2CCC[C@@H](N)C2)n(Cc2ccccc2C#N)c1=O` . Reported bioavailability?
Marked response: 68%

###

# ASSAY INFO: Volume of distribution in rat at 1 mg/kg, iv measured after 24 hrs by LC/MS/MS analysis
# Assay type: ADME, organism-based
# SETTINGS: in vivo
MEASUREMENT NAME: Vd (L/kg)
Please state the figure in L/kg; there is no need to write the unit.

Exam item: Item under review: Cn1c(=O)cc(N2CCC[C@@H](N)C2)n(Cc2ccccc2C#N)c1=O [ALOGLIPTIN] . Reported Vd?
Marked response: 3.5

###

# ASSAY INFO: AUC in rat at 1 mg/kg, iv measured after 24 hrs by LC/MS/MS analysis
# Type: ADME, organism-based
# Set-up: dose 1 mg/kg, time 24 hrs, route iv
# SETTINGS: in vivo
MEASUREMENT NAME: AUC at 24 h (ng·h/mL)
Please state the figure in ng·h/mL; there is no need to write the unit.

Exam item: Item under review: `Cn1c(=O)cc(N2CCC[C@@H](N)C2)n(Cc2ccccc2C#N)c1=O` . Reported AUC at 24 h?
Marked response: 260

###

# ASSAY INFO: Oral bioavailability in rat at 1 mg/kg measured after 24 hrs by LC/MS/MS analysis
# Type: ADME, organism-based
# SETTINGS: in vivo
MEASUREMENT NAME: bioavailability (%)
Please state the figure in %; there is no need to write the unit.

Exam item: Item under review: `Cn1c(=O)cc(N2CCC[C@@H](N)C2)n(Cc2ccccc2C#N)c1=O` . Reported bioavailability?
Marked response: 86

###

# ASSAY INFO: Tmax in dog at 3 mg/kg, po measured after 24 hrs by LC/MS/MS analysis
# Assay type: ADME, organism-based, Canis lupus familiaris
# SETTINGS: in vivo
MEASUREMENT NAME: Tmax (min)
Please state the figure in min; there is no need to write the unit.

Exam item: Item under review: Cn1c(=O)cc(N2CCC[C@@H](N)C2)n(Cc2ccccc2C#N)c1=O [ALOGLIPTIN] . Reported Tmax?
Marked response: 24

###

# ASSAY INFO: Half life in dog at 0.5 mg/kg, iv measured after 0.083 hrs by liquid chromatography tandem mass spectrometry analysis
# Type: ADME, organism-based, Canis lupus familiaris
# SETTINGS: in vivo
MEASUREMENT NAME: half-life (h)
Please state the figure in h; there is no need to write the unit.

Exam item: Item under review: `N[C@H]1C[C@@H](N2CC3=C(C2)CS(=O)(=O)C3)CO[C@@H]1c1cc(F)ccc1F` . Reported half-life?
Marked response: 52.8

###

# ASSAY INFO: Clearance in dog at 3 mg/kg, po measured after 24 hrs by LC/MS/MS analysis
# Format: ADME, organism-based, Canis lupus familiaris
# SETTINGS: in vivo
MEASUREMENT NAME: CL/F (mL/min/kg)
Please state the figure in mL/min/kg; there is no need to write the unit.

Exam item: Item under review: Cn1c(=O)cc(N2CCC[C@@H](N)C2)n(Cc2ccccc2C#N)c1=O [ALOGLIPTIN] . Reported CL/F?
Marked response: 23
